Test system: A673/TR/shEF
Assay: cell viability (LOESS-normalised, relative to median of negative controls) (log2 ratio); higher = more viable cells (less compound effect), active = hit call of the paper (over 3 MAD below the median)
Conditions: 0.103 µM; library screen: screen3; EWS-FLI1 expression: high (no doxycycline); treatment time: 72 h
Among all 3,200 compounds or so, about 300 (9.4%) showed activity. The sample as a whole holds a higher share of actives than the screen did.
Catalogue of cell viability (log2) values
reported property: cell viability (log2)

CC(=O)O[C@H]1C[C@@H]2CC[C@@H]3[C@H](CC[C@@]4(C)[C@H]3C[C@H]([N+]3(C)CCCCC3)[C@@H]4OC(C)=O)[C@@]2(C)C[C@@H]1[N+]1(C)CCCCC1 = 0.0285
CCOC(=O)c1cncn1C(C)c1ccccc1 (centres undefined) = 0.148
Cn1cc(C2=C(c3cn(C4CCN(Cc5ccccn5)CC4)c4ccccc34)C(=O)NC2=O)c2ccccc21 = -0.105
CN1[C@H]2CC(OC(=O)C(CO)c3ccccc3)C[C@H]1[C@H]1O[C@H]12 (some centres undefined) = 0.0178

* * *

Tested on: A673/TR/shEF
Assay: cell viability (LOESS-normalised, relative to median of negative controls) (log2 ratio); higher = more viable cells (less compound effect), active = hit call of the paper (over 3 MAD below the median)
Settings: 0.25 µM; library screen: screen1; EWS-FLI1 expression: low (doxycycline-induced shRNA knockdown); treatment time: 72 h
In all, about 3,200 compounds went through this assay and about 300 (9.4%) showed activity. Many of the other results were omitted from the sample, so actives are more common in it than they were.
Labels: active, inactive

CN1Cc2c(ccc3c2OCO3)[C@@H]2[C@H]1c1cc3c(cc1C[C@@H]2O)OCO3 = inactive
Cc1[nH]c2ccccc2c1CN(C)C = inactive
CC(C)[C@]12O[C@H]1[C@@H]1O[C@@]13[C@@]1(C)CCC4=C(COC4=O)[C@@H]1C[C@@H]1O[C@@]13C2=O = active
c1ccc2c(c1)sc1ccccc12 = inactive
CC(C)c1ccc2c(c1O)CCC1C3=C(CCC21C)C(=O)OC3 (configuration not stated) = inactive
N#CC(C#N)=Cc1ccc([N+](=O)[O-])c(O)c1 = inactive
COP(=S)(OC)SCn1nnc2ccccc2c1=O = inactive
N#C/C(=C\c1cccc(O)c1)C(=O)O = inactive
C[N+]1=Cc2cc3c(cc2CC1)OCO3 = inactive
CNC(=O)CSP(=S)(OC)OC = inactive
N#Cc1c(Cl)cccc1Cl = inactive
CCCN(CCC)c1c([N+](=O)[O-])cc(C(F)(F)F)cc1[N+](=O)[O-] = inactive

* * *

Catalogue of cell viability (log2) values
Tested on: A673/TR/shEF
Experiment: cell viability (LOESS-normalised, relative to median of negative controls) (log2 ratio); higher = more viable cells (less compound effect), active = hit call of the paper (over 3 MAD below the median)
Settings: 2.8 µM; library screen: screen3; EWS-FLI1 expression: low (doxycycline-induced shRNA knockdown); treatment time: 72 h
Out of some 3,200 compounds screened, about 300 (9.4%) showed activity. What follows is part of a selection rich in actives, with near analogues and random picks from the rest.
reported property: cell viability (log2)

Cn1cc(C2=C(c3cn(C4CCN(Cc5ccccn5)CC4)c4ccccc34)C(=O)NC2=O)c2ccccc21 = -0.0681
CC(=O)O[C@H]1C[C@@H]2CC[C@@H]3[C@H](CC[C@@]4(C)[C@H]3C[C@H]([N+]3(C)CCCCC3)[C@@H]4OC(C)=O)[C@@]2(C)C[C@@H]1[N+]1(C)CCCCC1 = 0.0286
O=P1(N(CCCl)CCCl)NCCCO1 (centres undefined) = 0.0823
C[C@]12CC[C@H]3[C@@H](CCC4=CC(=O)CC[C@@]43C)[C@@H]1CC[C@@H]2OC(=O)CCC1CCCC1 = 0.00975

Data origin, for the record: the supplement of paper PMC6089552
